Provenance of the data: PubChem BioAssay AID248

# System: L1210 leukemia ip in BDF1 mice, survival T/C
# protocol: NCI In Vivo Anticancer Drug Screen. Data for tumor model L1210 Leukemia (intraperitoneal) in B6D2F1 (BDF1) mice
# experimental conditions: endpoint: mean survival time; dose: 100.0 mg/kg/injection; schedule: Q04DX002 (ip); vehicle: Klucel (hydroxypropylcellulose) (HPC); higher = longer survival
Toxic doses and inconclusive results are not listed.
Overview of reported T/C across a group of compounds:

{"compound": "CC1(C)CN1P(=O)(Oc1ccc([N+](=O)[O-])cc1)N1CC1(C)C (stereo unspecified)", "system under test": "L1210 leukemia ip in BDF1 mice, survival T/C", "T/C": "110 % of control"}
{"compound": "Cc1cc(NC(=O)Nc2cccc3ccccc23)no1", "system under test": "L1210 leukemia ip in BDF1 mice, survival T/C", "T/C": "89 % of control"}
{"compound": "CC(=O)SCN1C(=O)C2C3CCC(O3)C2C1=O (stereo unspecified)", "system under test": "L1210 leukemia ip in BDF1 mice, survival T/C", "T/C": "91 % of control"}
{"compound": "NC(=O)NC(=O)c1nc2ccccc2[nH]c1=O", "system under test": "L1210 leukemia ip in BDF1 mice, survival T/C", "T/C": "95 % of control"}
{"compound": "O=C(Nc1ccccc1)Oc1c(Cl)c(Cl)c(Cl)c(Cl)c1Cl", "system under test": "L1210 leukemia ip in BDF1 mice, survival T/C", "T/C": "98 % of control"}
{"compound": "O=C(O)c1cc(Br)cc(I)c1Br", "system under test": "L1210 leukemia ip in BDF1 mice, survival T/C", "T/C": "105 % of control"}

----------
# Tested on: L1210 leukemia ip in BDF1 mice, survival T/C
# protocol: NCI In Vivo Anticancer Drug Screen. Data for tumor model L1210 Leukemia (intraperitoneal) in B6D2F1 (BDF1) mice
# experimental conditions: endpoint: mean survival time; dose: 25.0 mg/kg/injection; schedule: Q01DX009 (ip); vehicle: Klucel (hydroxypropylcellulose) (HPC); higher = longer survival
Inconclusive results and toxic doses are left out.
Overview of reported T/C across a group of compounds:
measure: T/C

{"compound": "NC(Cc1ccc(O)cc1)C(=O)N/N=C/c1ccc(N(CCCl)CCCl)cc1 (stereo not given)", "result": "101 % of control"}
{"compound": "CN(C)C(N)=Nc1ccc(Cl)cc1", "result": "98 % of control"}
{"compound": "COC1/C=C/OC2(C)Oc3c(C)c(O)c4c(O)c(c(/C=N/N5CCN(Cc6ccccc6)CC5)c(O)c4c3C2=O)NC(=O)C(C)=C/C=C/C(C)C(O)C(C)C(O)C(C)C(OC(C)=O)C1C (stereo not given)", "result": "97 % of control"}
{"compound": "Cc1c([N+](=O)[O-])cc(C(C)(C)C)c(OC(=O)Nc2cccc(Cl)c2)c1[N+](=O)[O-]", "result": "94 % of control"}
{"compound": "CC(=O)NCC1CCCCC1", "result": "98 % of control"}

----------
# Tested on: L1210 leukemia ip in BDF1 mice, survival T/C
# protocol: NCI In Vivo Anticancer Drug Screen. Data for tumor model L1210 Leukemia (intraperitoneal) in B6D2F1 (BDF1) mice
# experimental conditions: endpoint: mean survival time; dose: 200.0 mg/kg/injection; schedule: Q04DX002 (ip); vehicle: Klucel (hydroxypropylcellulose) (HPC); higher = longer survival
Toxic doses and inconclusive results are not listed.
Overview of reported T/C across a group of molecules:
measure: T/C

{"molecule": "O=S(=O)(c1ccccc1)C(Br)c1ccccc1 (centres undefined)", "measure": "T/C", "result": "105 % of control"}
{"molecule": "CC1(C)CN1P(=O)(Oc1ccc([N+](=O)[O-])cc1)N1CC1(C)C (centres undefined)", "measure": "T/C", "result": "108 % of control"}
{"molecule": "O=Cc1ccc(OCc2ccccc2)cc1", "measure": "T/C", "result": "96 % of control"}
{"molecule": "Cn1ccnc1CC(C)(O)c1ccccc1 (centres undefined)", "measure": "T/C", "result": "108 % of control"}
{"molecule": "C/C=C/C(=O)Nc1ccc(Cl)c(Cl)c1", "measure": "T/C", "result": "90 % of control"}
{"molecule": "CCOC(=O)C(=CNc1cc(NC(C)=O)nc(SC)n1)C(=O)OCC", "measure": "T/C", "result": "103 % of control"}
{"molecule": "O=C/C(=C/Nc1ccc(C(=O)O)cc1)[N+](=O)[O-]", "measure": "T/C", "result": "98 % of control"}
{"molecule": "CNC(=O)C1C(c2ccccc2)C1c1ccccc1 (centres undefined)", "measure": "T/C", "result": "97 % of control"}
{"molecule": "Cc1ccc(C2C(C(=O)O)C2c2ccccc2)cc1 (centres undefined)", "measure": "T/C", "result": "95 % of control"}

----------
# System: L1210 leukemia ip in BDF1 mice, survival T/C
# protocol: NCI In Vivo Anticancer Drug Screen. Data for tumor model L1210 Leukemia (intraperitoneal) in B6D2F1 (BDF1) mice
# experimental conditions: endpoint: mean survival time; dose: 100.0 mg/kg/injection; schedule: Q01DX009 (ip); vehicle: saline
# Method: The antitumor activity of compounds was measured in mice bearing transplantable tumors. Survival or tumor size were measured and the results are expressed as the measurement made in the treated group (T) divided by the measurement made in the vehicle treated control group (C). The tumor model used in this assay is L1210 Leukemia (intraperitoneal) in B6D2F1 (BDF1) mice
Toxic doses and inconclusive results are not listed. Cut-off read from the data, not from the text of the source: active = T/C of 150% or more; inactive = T/C below 125%.
Outcome codes: yes (active), no (inactive)

{"molecule": "Nc1ccnc(Br)c1", "assigned label": "no"}
{"molecule": "CN(C)CCNS(C)(=O)=O", "assigned label": "no"}
{"molecule": "COC(CBr)c1ccccc1 (stereo unspecified)", "assigned label": "no"}
{"molecule": "CCCCN(CCCC)CCCC#N", "assigned label": "no"}
{"molecule": "CCOC(=O)/C=C/c1c(Cl)nc2ccccn2c1=O", "assigned label": "no"}
{"molecule": "COCC1OC(OC2OCC3OC4(OCC(O)(C(C)OC)C5OCOC54)OC3C2OC)C(OC)C(O)C1OC1OC(C)C(OC)C(OC2OC(C)C3OC4(CC(O)C(OC5CC(OC6CC(C)([N+](=O)[O-])C(OC)C(C)O6)C(OC(=O)c6c(C)c(Cl)c(O)c(Cl)c6OC)C(C)O5)C(C)O4)OC3(C)C2O)C1O (stereo unspecified)", "assigned label": "no"}
{"molecule": "C(=N/OC(c1ccccc1)(c1ccccc1)c1ccccc1)/c1ccccc1", "assigned label": "no"}
{"molecule": "CC1=C(/C=C/C(C)=N/NC(N)=O)C(C)(C)CCC1", "assigned label": "no"}
{"molecule": "COc1c(C)c2c(c(O)c1C/C=C(\\C)CCC(=O)O)C(=O)OC2", "assigned label": "no"}
{"molecule": "COc1cc2c(cc1O)CN(CCC(C)=O)CC2O (stereo unspecified)", "assigned label": "no"}
{"molecule": "COC(=O)C1(C)CCC(c2ccc(OC)cc2)C(CC(=O)O)C1=O (stereo unspecified)", "assigned label": "no"}
{"molecule": "NC(N)=NC(N)=NC1CCCCC1", "assigned label": "no"}
{"molecule": "CCN(CC)CC(=O)NCC(CC)(CCN1CCCCC1)c1cccc2ccccc12 (stereo unspecified)", "assigned label": "no"}
{"molecule": "CC1NCCC1CO (stereo unspecified)", "assigned label": "no"}
{"molecule": "CC(=O)/C=C/c1ccc2c(c1)OCO2", "assigned label": "no"}
{"molecule": "CN(C)C1CCN(Cc2ccccc2)CC1", "assigned label": "no"}
{"molecule": "O=C(O)c1nc[nH]c1C(=O)O", "assigned label": "no"}
{"molecule": "CC(C)(O)C(O)C(=O)O (stereo unspecified)", "assigned label": "no"}
{"molecule": "Nc1nc(=O)n(C2OC(CO)C(O)C2O)cc1F (stereo unspecified)", "assigned label": "yes"}
{"molecule": "CC1OCC(C)(CO)CO1 (stereo unspecified)", "assigned label": "no"}
{"molecule": "CC(C)C(=O)Nc1ccc([N+](=O)[O-])c(C(F)(F)F)c1", "assigned label": "no"}
{"molecule": "CC1NC1C (stereo unspecified)", "assigned label": "no"}
{"molecule": "C=CCSCCC", "assigned label": "no"}
{"molecule": "c1ccc(CC(Cc2ccccc2)CN2CCCC2)cc1", "assigned label": "no"}
{"molecule": "COc1cc(N[Si](C)(C)C)nc(OC)n1", "assigned label": "no"}
{"molecule": "COC1OC(COS(=O)(=O)c2ccc(C)cc2)C2OC(C)(C)OC12 (stereo unspecified)", "assigned label": "no"}
